// data source = ChEMBL document CHEMBL1165917

Species on record: Rattus norvegicus
Details: at 1 µM
Parameter measured: inhibition (%)
# output: bare number, implied unit %

Below: 3 compounds and their reported inhibition.
Input line: Give inhibition for the following compound: FC1(F)CCNC(C2COC(c3ccccc3)(c3ccccc3)O2)C1 (racemic)
Output line: 17

Input line: Fill in inhibition for record OC1CCNC(C2COC(c3ccccc3)(c3ccccc3)O2)C1 (racemic)
Output line: 13

Input line: Hello, please tell me recorded inhibition for this one: FC1CCNC(C2COC(c3ccccc3)(c3ccccc3)O2)C1 (racemic; form 2)
Output line: 19

As a next step, examine the compound that follows.
Input line: Please report the measured inhibition for FC1CCNC(C2COC(c3ccccc3)(c3ccccc3)O2)C1 (racemic; form 1)
Output line: 19
